Cited source: patent US20250049798A1

Target: HiBiT tagged Wee1 (Homo sapiens, UniProt P30291)
Sequence (P30291 whole entry): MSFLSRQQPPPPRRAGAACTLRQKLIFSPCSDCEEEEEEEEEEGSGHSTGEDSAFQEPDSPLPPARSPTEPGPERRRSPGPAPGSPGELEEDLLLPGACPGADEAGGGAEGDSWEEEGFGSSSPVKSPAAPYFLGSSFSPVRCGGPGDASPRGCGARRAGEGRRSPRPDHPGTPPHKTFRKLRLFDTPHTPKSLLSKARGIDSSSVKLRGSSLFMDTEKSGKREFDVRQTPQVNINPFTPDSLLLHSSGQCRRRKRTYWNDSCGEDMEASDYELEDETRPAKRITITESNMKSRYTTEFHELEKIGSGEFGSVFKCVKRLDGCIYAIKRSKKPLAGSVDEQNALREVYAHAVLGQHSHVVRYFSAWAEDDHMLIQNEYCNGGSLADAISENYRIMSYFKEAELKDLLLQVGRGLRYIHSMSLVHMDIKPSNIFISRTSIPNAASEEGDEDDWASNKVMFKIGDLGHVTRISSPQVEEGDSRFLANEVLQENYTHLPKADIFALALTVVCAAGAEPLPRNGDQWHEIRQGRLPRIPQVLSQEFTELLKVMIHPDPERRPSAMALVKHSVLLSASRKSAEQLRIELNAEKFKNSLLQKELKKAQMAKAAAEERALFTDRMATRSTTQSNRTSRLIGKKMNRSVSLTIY
Assay: Wee1 protein degradation assay (HiBiT assay)
Format: cell-based
Settings: engineered HT-1080 cells, 20 hours; maximum percentage of Wee1 degradation; read-out: HiBiT Wee1: Dmax
For each of the compounds below, state its Dmax.

Q: Which Dmax reading was recorded for the compound C=CCn1c(=O)c2cnc(Nc3ccc(C4CCN(C5CN(c6ccc7c(c6)C(=O)N(C6CCC(=O)NC6=O)C7=O)C5)CC4)cc3)nc2n1-c1cccc(C(C)(C)O)n1 (centres unmarked) ?
Ans: > 75%

Q: Which Dmax reading was recorded for the compound C=CCn1c(=O)c2cnc(Nc3ccc(N4CCN(CC5CCN(c6ccc7c(N8CCC(=O)NC8=O)nn(C)c7c6)CC5)CC4)c(C)c3)nc2n1-c1ccc2c(n1)[C@](C)(O)CC2 ?
Ans: > 75%

Q: Which Dmax reading was recorded for the compound C=CCn1c(=O)c2cnc(Nc3ccc(N4CCC(CN5CCN(c6ccc(NC7CCC(=O)NC7=O)cc6F)CC5)CC4)cc3)nc2n1-c1ccc2c(n1)[C@@](C)(O)CC2 (single isomer, unassigned) ?
Ans: > 75%

Q: Which Dmax reading was recorded for the compound C=CCn1c(=O)c2cnc(Nc3ccc(C4CCN(C5CCN(c6ccc7c(c6)C(=O)N(C6CCC(=O)NC6=O)C7=O)C5)CC4)cc3)nc2n1-c1cccc(C(C)(C)O)n1 (centres unmarked) ?
Ans: 50 to 75%

Q: Which Dmax reading was recorded for the compound C=CCn1c(=O)c2cnc(Nc3ccc(N4CCN(CCCCc5cccc6c5n(C)c(=O)n6C5CCC(=O)NC5=O)CC4)cc3)nc2n1-c1cccc(C(C)(C)O)n1 (centres unmarked) ?
Ans: 50 to 75%
